Test system: Staphylococcus aureus
METHOD: Antimicrobial activity against methicillin-resistant Staphylococcus aureus after 24 hrs by broth microdilution method
Format: functional
# label = TRUE if MIC50 < 1 µg/mL else FALSE

# check: MIC50 < 1 µg/mL for `CN[C@H](CC(C)C)C(=O)N[C@H]1C(=O)N[C@@H](CC(N)=O)C(=O)N[C@H]2C(=O)N[C@H]3C(=O)N[C@H](C(=O)N[C@H](C(=O)O)c4cc(O)cc(O)c4-c4cc3ccc4O)[C@H](O)c3ccc(c(Cl)c3)Oc3cc2cc(c3O[C@@H]2O[C@H](CO)[C@@H](O)[C@H](O)[C@H]2O[C@H]2C[C@](C)(N)[C@H](O)[C@H](C)O2)Oc2ccc(cc2Cl)[C@H]1O` TRUE

# check: MIC50 < 1 µg/mL for `CC1(C)S[C@@H]2[C@H](NC(=O)[C@H](N)c3ccccc3)C(=O)N2[C@H]1C(=O)O` FALSE

# check: MIC50 < 1 µg/mL for `C[C@H]1COc2c(N3CCN(C)CC3)c(F)cc3c(=O)c(C(=O)O)cn1c23.C[C@H]1COc2c(N3CCN(C)CC3)c(F)cc3c(=O)c(C(=O)O)cn1c23.O` FALSE

# check: MIC50 < 1 µg/mL for `Cc1onc(-c2ccccc2)c1C(=O)N[C@@H]1C(=O)N2[C@@H]1SC(C)(C)[C@@H]2C(=O)O` FALSE

# check: MIC50 < 1 µg/mL for `CC[C@H]1OC(=O)[C@H](C)[C@@H](O[C@H]2C[C@@](C)(OC)[C@@H](O)[C@H](C)O2)[C@H](C)[C@@H](O[C@@H]2O[C@H](C)C[C@H](N(C)C)[C@H]2O)[C@](C)(O)C[C@@H](C)C(=O)[C@H](C)[C@@H](O)[C@]1(C)O` FALSE

# check: MIC50 < 1 µg/mL for `COc1cc(O)c(C(=O)[C@@H]2[C@H](CC=C(C)C)C(C)=CC[C@H]2c2ccccc2)c(O)c1` TRUE

# check: MIC50 < 1 µg/mL for `Cc1ccc(C(C)C)c(O)c1` FALSE

# check: MIC50 < 1 µg/mL for `CN(C)[C@@H]1C(O)=C(C(N)=O)C(=O)[C@@]2(O)C(O)=C3C(=O)c4c(O)cccc4[C@@](C)(O)[C@H]3C[C@@H]12` FALSE
